Just for reference, PubChem BioAssay AID248 is where these values come from.

test system: L1210 leukemia ip in BDF1 mice, survival T/C; assay: NCI In Vivo Anticancer Drug Screen. Data for tumor model L1210 Leukemia (intraperitoneal) in B6D2F1 (BDF1) mice; details: endpoint: mean survival time; dose: 50.0 mg/kg/injection; schedule: Q01DX001 (ip); vehicle: saline; higher = longer survival
Toxic doses and inconclusive results are not listed.
Reported T/C values are given for each entry in this list.

{"Compound": "CC(=O)N(N=O)c1c(C)cccc1C", "T/C": "102 % of control"}
{"Compound": "CC1CCCC1=O (configuration not stated)", "T/C": "96 % of control"}
{"Compound": "Cc1ccc(CCn2cnc3c(=S)nc[nH]c32)cc1", "T/C": "98 % of control"}
{"Compound": "NNc1ncccc1[N+](=O)[O-]", "T/C": "102 % of control"}
{"Compound": "O=C(CSc1ccc([N+](=O)[O-])cc1)c1ccccc1", "T/C": "104 % of control"}
{"Compound": "C/C(CCC(=O)O)=N/Nc1nnc(N/N=C(/C)CCC(=O)O)c2ccccc12", "T/C": "102 % of control"}
{"Compound": "CC1(C)N=C(N)N=C(N)N1c1cccc(OCCCOc2cccc(N)c2)c1", "T/C": "98 % of control"}
